Ref: PubChem BioAssay (NCI)

# Tested on: M14 melanoma
# method: NCI-60 one-dose screen, 48 h (100 = growth as untreated, 0 = no growth, -100 = all killed)
# study.conditions: 10 µM unless noted
The panel holds about 83,000 compounds, 20% with a hit somewhere; the sample as a whole holds those more often.
reported.metric: growth (%)
Numbers only, in %.

// each listed molecule needs a value for growth
1. CN1C(=O)C2(C(C#N)=C(c3ccc(Cl)cc3)Nc3c2c(-c2ccccc2)nn3-c2ccccc2)c2ccccc21 (stereo not drawn)
2. O=c1[nH]c2ccccc2cc1CSc1ccccc1Nc1nccc(-c2ccc3c(c2)OCO3)n1
3. O=C(c1cc2cc(OCCCN3CCC3)ccc2[nH]1)N1C[C@@H](CCl)c2c1cc(OCc1ccccc1)c1ccccc21
4. COc1cc2cc(C(=O)N3C[C@@H](CCl)c4c3cc(OC(=O)N(CCC(=O)N3CCN(C)CC3)C3CCCCC3)c3ccccc43)[nH]c2c(OC)c1OC
5. CN1CCN(c2ccc3c4c(cccc24)C(=O)N(c2cccc(-c4nn(-c5ccccc5)cc4-c4nc5ccccc5s4)c2)C3=O)CC1
6. COc1ccc2[nH]cc(-c3cc4nc(-c5cn(C)c6ncccc56)cc(N)n4n3)c2c1
7. O=C(c1ccc(Cl)cc1)C1[C@H](c2ccccc2Cl)[C@@H](c2ccccc2)NC12C(=O)Nc1ccccc12 (stereo partly drawn)

Output:
77.2
89.3
-79.3
-84.5
90.6
-49.5
-75.7

Summary for this molecule, Clc1ccc(Nc2nnc(-c3c[nH]c4ccccc34)o2)cc1 : growth is 80.9

====

# Tested on: HOP-62 NSCLC
# method: NCI-60 one-dose screen, 48 h
# study.conditions: 10 µM unless noted
The panel holds about 83,000 compounds, 20% with a hit somewhere; the sample as a whole holds those more often. Calls of active or inactive are those of the source. The calls were made as follows: active = growth percent below 10; inactive = the rest.
Outcome (select one): TRUE (active), FALSE (inactive)

Task: // param item: Cc1ccc(Cl)cc1NC(=O)Nc1nc2ccc([N+](=O)[O-])cc2s1 ; yields the recorded call
Output: TRUE

Task: // param item: Nc1nnc(-c2cncc(Br)c2)c(-c2c[nH]c3ccc(Cl)cc23)n1 ; yields the recorded call
Output: FALSE

Task: // param item: Clc1ccc(-c2nc3ccc(-c4nnc(SCc5ccccc5)o4)cc3[nH]2)cc1 ; yields the recorded call
Output: TRUE

Task: // param item: O=C(c1cc2cc(OCCCN3CCC3)ccc2[nH]1)N1C[C@@H](CCl)c2c1cc(OCc1ccccc1)c1ccccc21 ; yields the recorded call
Output: TRUE

Task: // param item: CCCCN1C(=O)/C(=C\C(=O)c2cc3ccccc3oc2=O)c2ccccc21 ; yields the recorded call
Output: FALSE

====

# Test system: HT29 colon
# method: NCI-60 one-dose screen, 48 h (100 = growth as untreated, 0 = no growth, -100 = all killed)
# study.conditions: 10 µM unless noted
The panel holds about 83,000 compounds, 20% with a hit somewhere; the sample as a whole holds those more often.
Provide the recorded growth for the entries that follow.
Numbers only, in %.

Sample answers from the record:
| molecule | units.of.measure | growth |
| --- | --- | --- |
| CC(C)(C)OC(=O)N1C/C(=C\c2ccc(F)cc2)C(=O)/C(=C/c2ccc(F)cc2)C1 | % | -87.2 |
| COc1cc(CNC(=O)C[C@H](C)CCC=C(C)C)ccc1OCc1cn(-c2cccc(C(F)(F)F)c2)nn1 | % | 96.6 |

// each listed molecule needs a value for growth
1. COC(=O)CSC1=C(C)C(=O)C(OC)=C(OC)C1=O
2. COc1ccc(NC(=O)Cn2c(/C=C/c3cccc(Br)c3)nc3ccccc3c2=O)cc1
3. COc1ccc2[nH]c(=O)cc(-n3ncc(C(=O)/C=C/c4cc(OC)c(OC)c(OC)c4)c3C)c2c1
4. COc1cc(NC(=O)C(C)C)ccc1C(=O)NC(=S)Nc1ccc(S(N)(=O)=O)cc1

Output:
103
51.9
-27.4
101

// each listed molecule needs a value for growth
1. OCCn1cc(-c2nc3ccc4[nH]ncc4c3c3c2CCCC3)cn1
2. CCOc1ccccc1[C@H]1C(C(=O)c2ccc(Cl)cc2)C2(N[C@@H]1c1ccccc1)C(=O)Nc1ccc(Cl)cc12 (some centres undefined)
3. C=CCSc1nnc(-c2ccc(-c3nc4ccccc4[nH]3)cc2)o1

Output:
1: 19.7; 2: 10.7; 3: 69.5
